FYI, the data here is from patent US11730712B2.

Experiment: Single and repeat dose plasma and tissue pharmacokinetics in male C57BL/6 mice
Assay type: in vivo, mouse
Conditions: male, C57BL/6; mouse liver, 20 mg/kg PO, single dose QD × 1
Readings of half-life for the listed compounds
Give the number; h is assumed, so skip it.

[
  {
    "SAMPLE_SMILES": "CC(C)(CCCCc1ccc(CCCCC(C)(C)C(=O)O)cc1)C(=O)O",
    "RECORDED_MEASUREMENT": 9.6
  }
]

Shifting focus to the compound that follows.
Give recorded half-life. CC(C)(CCCCc1cccc(CCCCC(C)(C)C(=O)O)c1)C(=O)O 13

====

Test: Toxicokinetics in female rat plasma (4-day oral gavage study, Day 1)
Assay type: in vivo
Conditions: Wistar Han, plasma, oral; female rat, 300 mg/kg/day, Day 1; read-out: mean maximum observed concentration (Cmax)
MEASURED_QUANTITY: Cmax (µg/mL)
Give the number; µg/mL is assumed, so skip it.

Give recorded Cmax. CC(C)(CCCCc1cccc(CCCCC(C)(C)C(=O)O)c1)C(=O)O 406
